- runDescription: chemical genetic growth profiling, strain panel (AID 1159580);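 further: tested at 20 µM; growth read once vehicle control cultures reached saturation at 30 °C; 1 = growth at the plate median or of vehicle wells; lower values mean less growth of the strain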
- measurementSetup: S. cerevisiae deletion strains, growth OD, locus YPL055C, strain LGE1, hits give low values
Among all 5,500 compounds or so, about 2,000 (36%) were called active. About 18% were inconclusive and are not listed. The list shows a part of the results.
I'd appreciate it if you could supply normalized growth values for the items below.
Answers are plain numbers.

Field: example entries. Status: answers known.
[[record]]
compound = "O=C(N/N=C\\c1c(O)ccc2ccccc12)N/N=C\\c1c(O)ccc2ccccc12"
observed = 1.01

[[record]]
compound = "Nc1ccccc1C(=O)N/N=C\\c1cccc2ccccc12"
observed = 0.973

[[record]]
compound = "COc1cc(OC)nc(N)n1"
observed = 1.02

[[record]]
compound = "C/C=C(/C)C(=O)O[C@@H]1[C@H](OC(C)=O)[C@@]2(CO)C(CC1(C)C)C1=CCC3[C@@]4(C)CC[C@H](O[C@@H]5O[C@H](C(=O)O)[C@@H](O[C@@H]6O[C@H](CO)[C@@H](O)[C@H](O)[C@H]6O)[C@H](O)[C@H]5O[C@@H]5O[C@H](CO)[C@@H](O)[C@H](O)[C@H]5O)[C@](C)(CO)C4CC[C@@]3(C)[C@]1(C)C[C@H]2O (some centres undefined)"
observed = 1


Each of the following entries comes with a recorded value; kindly state normalized growth for each.
1. C[C@@H]1CC[C@]2(C(=O)O)CC[C@]3(C)C(=CCC4[C@@]5(C)CC[C@H](O)C(C)(C)C5CC[C@]43C)C2[C@H]1C (some centres undefined)
2. O=C(O)/C=C1\CCCc2ccccc2C1O (centres undefined)
3. C[C@@H]1OC(O[C@H]2[C@H](OC(=O)[C@]34CCC(C)(C)CC3C3=CCC5[C@@]6(C)CC[C@H](OC7O[C@@H](C)[C@H](O[C@@H]8OC[C@@H](O)[C@H](O)[C@H]8O)[C@@H](O)[C@H]7O)C(C)(C)C6CC[C@@]5(C)[C@]3(C)CC4O)OC[C@H](O)[C@H]2O)[C@H](O)[C@H](O)[C@H]1O[C@@H]1O[C@H](CO)[C@@H](O)[C@H](O)[C@H]1O (some centres undefined)
4. Nc1ccc(S(=O)(=O)Nc2cnc3ccccc3n2)cc1
5. Clc1cc(I)cc(Cl)c1NC1=NCCN1

Result:
[1.1, 0.971, 0.841, 0.94, 0.986]
